src = PubChem BioAssay (NCATS)

Test system: HeLa
Assay: Primary qHTS to identify gynecologic anti-cancer compounds using libraries of approved drugs and bioactive compounds (AID 1345084); note: % is set by controls: 0 for no effect and ±100 for the full control effect; nearly all actives have a fitted effect of over 55% in size
Conditions: Gynecologic cancer cell panel viability, ATPlite luminescence, 48 h; series mostly up to 57.5 µM
Source text: National Center for Advancing Translational Sciences [NCATS] Assay Overview: Chemotherapeutic drug responses vary from cancer to cancer and from patient to patient. […] ATPlite is a luminescence based assay reliant on the conversion of a luciferase substrate to light in the presence of ATP. As a cytotoxic compound will suppress growth and decrease the number of cells, the concentration of ATP will decrease, and less light signal will be detected in the well. […]
Records with an inconclusive call do not appear. The source made the active and inactive calls. Calls come from the whole dose curve; as a rule, active = well fitted cell-killing curve with a large enough effect; inconclusive = small, poorly fitted or top-dose-only effect, or effect the other way; inactive = flat fitted curve, though single readings scatter.
Property measured: activity change, negative = cytotoxicity

Look up activity change, negative = cytotoxicity: C[C@@H]1O[C@@H](O[C@@H]2[C@@H](O)[C@H](O[C@@H]3[C@@H](O)[C@@H](O)[C@H](O[C@H]4[C@H](OC(=O)[C@]56CCC(C)(C)C[C@H]5C5=CCC7[C@@]8(C)C[C@H](O)[C@H](O[C@@H]9O[C@H](C(=O)O)[C@@H](O)[C@H](O)[C@H]9O)[C@@](C)(CO)C8[C@H](O)C[C@@]7(C)[C@]5(C)C[C@H]6O)O[C@@H](CO)[C@@H]4O)O[C@H]3C)OC[C@H]2O)[C@H](O)[C@H](O)[C@H]1O (some centres not stated)
5.7% [at 6.55 µM] (inactive)
